# System: human neuroblastoma cell lines SH-SY5Y treated with 1-methyl-4-phenylpyridinium (MPP+)
# assay_name: Improvement of mitochondrial function (Alamar Blue mitochondrial oxidation reduction activity) in MPP+-treated SH-SY5Y cells
# Format: cell-based
# condition_set: compound 1 μg/ml, 1.5 mM MPP+, relative to cells in DMSO alone = 100%, read-out: Fluorescence Intensity (%)
measured_property: activity at 1 µg/mL (%)
Report only the number, with the unit % understood.

Sample CCCCc1ccc(C(=O)N(C)C)c2c(=O)c(-c3ccc(OC)cc3)c[nH]c12 [Example 82] ; activity at 1 µg/mL observed: 81

Input CCCOc1ccc(OC)c2c(=O)c(-c3ccc(OC)cc3)c[nH]c12 [Example 13] . Output activity at 1 µg/mL: 62

Value of activity at 1 µg/mL reported for the compound COc1ccc(-c2c[nH]c3c(N4CCCC4)ccc(C)c3c2=O)cc1 [Example 68] is 33

Consider CCCOc1ccc(COC)c2c(=O)c(-c3ccc(OC)cc3)c[nH]c12 [Example 64] . Its measured activity at 1 µg/mL is 38

activity at 1 µg/mL reading for COc1ccc(-c2c[nH]c3c(Br)ccc(C)c3c2=O)cc1 [Example 86] : 52

Lab book: activity at 1 µg/mL of CCCOc1cccc2c(=O)c(-c3ccc(OC)cc3)c[nH]c12 [Example 3] noted as 67

CCn1cc(-c2ccc(OC)cc2)c(=O)c2ccc(OC)cc21 [Example 2] has a reported activity at 1 µg/mL of 81

Record summary for CCCOc1ccc(C)c2c(=O)c(-c3ccsc3)c[nH]c12 [Example 58] : reported activity at 1 µg/mL = 55

activity at 1 µg/mL for CCCOc1ccc(C)c2c(=O)c(-c3ccc(OC)cc3OC)c[nH]c12 [Example 20] is 77

Record summary for CCCOc1ccc(C(=O)N(C)C)c2c(=O)c(-c3ccc(OC)cc3)c[nH]c12 [Example 87] : reported activity at 1 µg/mL = 66

// CCCOc1ccc(OC)c2c(=O)c(-c3ccc(Cl)cc3Cl)c[nH]c12 [Example 38] : activity at 1 µg/mL value = 65

Input CCCOc1ccc(OC)c2c(=O)c(-c3ccc(OC)cc3OC)c[nH]c12 [Example 21] . Output activity at 1 µg/mL: 84

---

measured_property: melting point

// melting point value for COc1ccc(-c2c[nH]c3c(OCC4CC4)ccc(C)c3c2=O)cc1 : 182 to 183 °C

Value of melting point reported for the molecule COc1ccc(-c2c[nH]c3c(C(=O)N4CCCC4)ccc(C)c3c2=O)cc1 is 193 to 195 °C

melting point recorded for this molecule, COc1ccc(-c2c[nH]c3c(N4CCN(C)CC4)ccc(C)c3c2=O)cc1 , is 214 to 215 °C

The reported value for COc1ccc(-c2c[nH]c3c(OC4CCCC4)ccc(OC)c3c2=O)cc1 in terms of melting point is 213 to 215 °C

Entry COc1ccc(OC2CCCC2)c2[nH]cc(-c3ccc(Cl)cc3Cl)c(=O)c12 ; melting point = 266 to 268 °C

Noted for COc1ccc(-c2c[nH]c3c(-n4ccnc4)ccc(C)c3c2=O)cc1 : its melting point reads 196 to 198 °C

Per the records, this molecule ( CCc1nccn1-c1ccc(C)c2c(=O)c(-c3ccc(OC)cc3)c[nH]c12 ) has melting point equal to 258 to 260 °C

Item: CCCOc1ccc(C)c2c(=O)c(-c3ccsc3)c[nH]c12 | melting point: 104 to 107 °C

CCOc1ccc(OC)c2c(=O)c(-c3ccc(OC)cc3)c[nH]c12 yielded melting point of 117 to 119 °C

// recorded melting point for CCCOc1ccc(C(F)(F)F)c2c(=O)c(-c3ccc(OC)cc3)c[nH]c12 : 220 to 221 °C

# melting point of CCCOc1ccc(C)c2c(=O)c(-c3csc4ccccc34)c[nH]c12 = 80 to 82 °C

// field: melting point; key: O=c1c(-c2ccc(Cl)cc2Cl)c[nH]c2c(OC3CCCC3)ccc(O)c12 ; value = 154 to 155 °C

Field melting point (entry CCCOc1cccc2c(=O)c(-c3ccccc3C(F)(F)F)c[nH]c12 ) reads 224 °C

So, CCCOc1cc(-n2ccnc2)cc2c(=O)c(-c3ccc(OC)cc3)c[nH]c12 ? Its melting point was 236 to 237 °C

Reported melting point of CCCOc1ccc(OC)c2c(=O)c(-c3ccc(Cl)cc3Cl)c[nH]c12 : 125 °C

Recorded result, COc1ccc(-c2c[nH]c3c(C(=O)N(C)C)ccc(C)c3c2=O)cc1 , melting point: 158 to 160 °C
